Data origin, for the record: ChEMBL document CHEMBL3286128

pEC50 values by entry
Tested on: Human immunodeficiency virus 1
Test: Antiviral activity against INSTI-resistant HIV-1 harboring integrase G118R mutant infected in human HOS cells pretreated with compound for 3 hrs by single-round HIV-1 infectivity assay
Type: functional, organism-based
Conditions: Human immunodeficiency virus 1, HOS
# log scale: pEC50 equals minus log10 of the concentration in mol/L

Known results for compounds:
Nc1c(C(=O)NCc2ccc(F)cc2F)c(=O)n(O)c2ncccc12	7.80
COC(=O)CNc1c(C(=O)NCc2ccc(F)cc2F)c(=O)n(O)c2ncccc12	7.39
C[C@@H]1CCO[C@H]2Cn3cc(C(=O)NCc4ccc(F)cc4F)c(=O)c(O)c3C(=O)N12 [DOLUTEGRAVIR]	7.89
O=C(NCc1ccc(F)cc1F)c1c(NCCO)c2cccnc2n(O)c1=O	7.57

Query compound follows.
Q: Fill in: pEC50 of CC(=O)OCCNc1c(C(=O)NCc2ccc(F)cc2F)c(=O)n(O)c2ncccc12 is ___
Ans: 7.36
